system-name: T1, mouse TSG-6 (tumor necrosis factor-induced protein 6) (mouse, UniProt O08859 18-275)
T1 construct: TSG-6 (tumor necrosis factor-induced protein 6), mouse; source: bought: R&D
T1 sequence (O08859 18-275): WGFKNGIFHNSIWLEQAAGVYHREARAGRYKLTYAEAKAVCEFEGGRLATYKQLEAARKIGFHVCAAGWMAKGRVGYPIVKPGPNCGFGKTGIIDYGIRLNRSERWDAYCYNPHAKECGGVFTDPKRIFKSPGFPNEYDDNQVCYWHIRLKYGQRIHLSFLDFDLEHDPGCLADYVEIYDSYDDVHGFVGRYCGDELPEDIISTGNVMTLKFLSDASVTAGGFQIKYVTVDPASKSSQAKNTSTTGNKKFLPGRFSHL
measurement-protocol: ELISA; N_PTX3 proteins coated on wells (10 μg/ml); IαI or TSG-6 added in PBS with Ca2+ and Mg2+, 0.05% Tween-20, 1% BSA, pH 7.4, 2 h at 37 °C; detected with polyclonal anti-IαI or anti-TSG-6
test-parameters: both partners purified
parameter-measured: binding result

{"binder": "wild type recombinant N-terminal region of PTX3 (N_PTX3) (domain or fragment, human, Pentraxin 3 (PTX3), human, residues 18-170 of the PTX3 preprotein; two non-authentic amino acids (Thr-Gly) before the C-terminal His tag; Organised into tetramers by SEC and native gel; The 5' primer begins at the ATG of the preprotein, so the signal peptide was probably encoded and cut off on secretion (surmise); also called WT; source: HEK-293 F, stably transfected, purified from culture …) ENSDDYDLMYVNLDNEIDNGLHPTEDPTPCACGQEHSEWDKLFIMLENSQMRERMLLQATDDVLRGELQRLREELGRLAESLARPCAPGAPAEARLTSALDELLQATRDAGRRLARMEGAEAQRPEEAGRALAAVLEELRQTRADLHAVQGWATG", "result": "binds"}
{"binder": "N_PTX3C47S/C49S/C103S (domain or fragment, human, Pentraxin 3 (PTX3), human, residues 18-170 of the PTX3 preprotein, with C47S, C49S and C103S; two non-authentic amino acids (Thr-Gly) before the C-terminal His tag; Composed entirely of non-covalent dimers; also called triple mutant; C47/C49/C103; source: HEK-293 F, stably transfected, purified from culture supernatant (HisTrap, desalting)) ENSDDYDLMYVNLDNEIDNGLHPTEDPTPSASGQEHSEWDKLFIMLENSQMRERMLLQATDDVLRGELQRLREELGRLAESLARPSAPGAPAEARLTSALDELLQATRDAGRRLARMEGAEAQRPEEAGRALAAVLEELRQTRADLHAVQGWATG", "result": "binds"}
{"binder": "N_PTX3C47S/C49S (domain or fragment, human, Pentraxin 3 (PTX3), human, residues 18-170 of the PTX3 preprotein, with C47S and C49S; two non-authentic amino acids (Thr-Gly) before the C-terminal His tag; Mixture of tetramers and dimers, more dimers than tetramers; also called double mutant; C47/C49; source: HEK-293 F, stably transfected, purified from culture supernatant (HisTrap, desalting)) ENSDDYDLMYVNLDNEIDNGLHPTEDPTPSASGQEHSEWDKLFIMLENSQMRERMLLQATDDVLRGELQRLREELGRLAESLARPCAPGAPAEARLTSALDELLQATRDAGRRLARMEGAEAQRPEEAGRALAAVLEELRQTRADLHAVQGWATG", "result": "binds"}
{"binder": "N_PTX3C103S (domain or fragment, human, Pentraxin 3 (PTX3), human, residues 18-170 of the PTX3 preprotein, with C103S; two non-authentic amino acids (Thr-Gly) before the C-terminal His tag; Mixture of tetramers and dimers, more tetramers than dimers; also called single mutant; source: HEK-293 F, stably transfected, purified from culture supernatant (HisTrap, desalting)) ENSDDYDLMYVNLDNEIDNGLHPTEDPTPCACGQEHSEWDKLFIMLENSQMRERMLLQATDDVLRGELQRLREELGRLAESLARPSAPGAPAEARLTSALDELLQATRDAGRRLARMEGAEAQRPEEAGRALAAVLEELRQTRADLHAVQGWATG", "result": "binds"}

Each recorded value in this set is attributed to paper PMC3507621.
